These entries and their values trace back to the kinase profiling compilation of Christmann-Franck et al. (2016).

Molecular target: MATK (human)
Experiment: radiometric filter-binding kinase assay, Kinase HotSpot
Settings: compound 0.5 µM; ATP 10 µM
Exercise: for every item that follows, state its recorded residual activity.
The answer is to be given in %; state only the numeric part.

Prompt line: What value of measured residual activity is listed for `CCN(CC)C(=O)c1ccc(Nc2nc(OCC3CCCCC3)c3nc[nH]c3n2)cc1` ?
Response line: 95.6

Prompt line: Please give the result for `CC(C)N(CCC(=O)c1ccc2ccccc2c1)Cc1ccccc1` too.
Response line: 80.7

Prompt line: Field entry: `N#C/C(=C(/N)Sc1ccc(N)cc1)c1ccccc1C(F)(F)F`
Response line: 90.7

Prompt line: Now the compound `O=c1cc(N2CCOCC2)oc2c1ccc1ccccc12`
Response line: 90.7

Prompt line: Also need `Nc1cccc(-c2cc3c(Oc4cccc(O)c4)ncnc3[nH]2)c1` , thanks.
Response line: 97.8

Prompt line: Now the same for `c1ccc(-c2n[nH]cc2-c2ccnc3ccccc23)nc1`
Response line: 87.9

Prompt line: Another compound to check: `CC#CC(=O)Nc1cc2c(Nc3ccc(F)c(Cl)c3)ncnc2cn1`
Response line: 95.8

Prompt line: Then this compound: `O=S(=O)(c1cccc2cnccc12)N1CCCNCC1`
Response line: 99.6

Prompt line: Moving on to `CCCC(=O)Oc1ccc2[nH]c(C(=O)c3cc4ccccc4[nH]3)cc2c1`
Response line: 93.4

Prompt line: Another: `CNC(=O)c1cc(Oc2ccc(NC(=O)Nc3ccc(Cl)c(C(F)(F)F)c3)cc2)ccn1`
Response line: 114

Prompt line: Please do the same for `O=C1NC(=O)c2c1c1c3ccccc3n3c1c1c2c2ccccc2n1C1CCC3O1` as well.
Response line: 91.7

Prompt line: Also need CO[C@H]1CC2CC[C@@H](C)[C@@](O)(O2)C(=O)C(=O)N2CCCC[C@H]2C(=O)OC([C@H](C)C[C@@H]2CC[C@@H](O)[C@H](OC)C2)CC(=O)[C@H](C)/C=C(\C)[C@@H](O)[C@@H](OC)C(=O)[C@H](C)C[C@H](C)/C=C/C=C/C=C/1C (stereo partly specified) , thanks.
Response line: 92

Prompt line: What do we get for `O=C1NC(=O)/C(=C/c2ccc3c(c2)OC(F)(F)O3)S1` ?
Response line: 93.2

Prompt line: Okay, and `Nc1ncnc2c1c(-c1ccc(Oc3ccccc3)cc1)cn2C1CCCC1` ?
Response line: 90

Prompt line: Follow-up entry: `CC(=O)c1ccc(N2CCOCC2)cc1O`
Response line: 92.1

Prompt line: Further, for `Oc1cccc(-c2nc(N3CCOCC3)c3oc4ncccc4c3n2)c1` ?
Response line: 86.7

Prompt line: Let us now turn to `O=C(Nc1cccc(Nc2nccc(Nc3cccc(C(F)(F)F)c3)n2)c1)C1CC1`
Response line: 101

Prompt line: Also need `O=C1Nc2ccc(Cl)cc2/C1=C/c1cc(Cl)c(O)c(Cl)c1` , thanks.
Response line: 82.2

Prompt line: What about `Cc1ccc(NC2=CC(=O)c3sc(C)nc3C2=O)cc1` ?
Response line: 88.3

Prompt line: Next: `Cc1ccc(Nc2nccc(N(C)c3ccc4c(C)n(C)nc4c3)n2)cc1S(N)(=O)=O`
Response line: 104

Prompt line: Follow-up item: `Nc1ccc2ncnc(NCCc3ccc(Oc4ccccc4)cc3)c2c1`
Response line: 89.6

Prompt line: Continue with `CCOC(=O)c1c(C)[nH]c(/C=C2\C(=O)Nc3ccccc32)c1C`
Response line: 101

Prompt line: Follow-up item: `CCC(=O)Nc1ccc2ncnc(Nc3cccc(Br)c3)c2c1`
Response line: 93.4

Prompt line: Subsequent entry: `Nc1ncnc2[nH]nc(Nc3ccc(F)cc3)c12`
Response line: 95.6

Prompt line: Another: `COc1ccc2c(c[n+](C)c3c4cc5c(cc4ccc23)OCO5)c1OC`
Response line: 89.5

Prompt line: // repeat for `COc1cc2ncnc(Nc3cccc(Cl)c3)c2cc1OC` and report
Response line: 103

====

Molecular target: EPHA8 (human) (UniProt P29322)
Sequence (P29322 whole entry, looked up): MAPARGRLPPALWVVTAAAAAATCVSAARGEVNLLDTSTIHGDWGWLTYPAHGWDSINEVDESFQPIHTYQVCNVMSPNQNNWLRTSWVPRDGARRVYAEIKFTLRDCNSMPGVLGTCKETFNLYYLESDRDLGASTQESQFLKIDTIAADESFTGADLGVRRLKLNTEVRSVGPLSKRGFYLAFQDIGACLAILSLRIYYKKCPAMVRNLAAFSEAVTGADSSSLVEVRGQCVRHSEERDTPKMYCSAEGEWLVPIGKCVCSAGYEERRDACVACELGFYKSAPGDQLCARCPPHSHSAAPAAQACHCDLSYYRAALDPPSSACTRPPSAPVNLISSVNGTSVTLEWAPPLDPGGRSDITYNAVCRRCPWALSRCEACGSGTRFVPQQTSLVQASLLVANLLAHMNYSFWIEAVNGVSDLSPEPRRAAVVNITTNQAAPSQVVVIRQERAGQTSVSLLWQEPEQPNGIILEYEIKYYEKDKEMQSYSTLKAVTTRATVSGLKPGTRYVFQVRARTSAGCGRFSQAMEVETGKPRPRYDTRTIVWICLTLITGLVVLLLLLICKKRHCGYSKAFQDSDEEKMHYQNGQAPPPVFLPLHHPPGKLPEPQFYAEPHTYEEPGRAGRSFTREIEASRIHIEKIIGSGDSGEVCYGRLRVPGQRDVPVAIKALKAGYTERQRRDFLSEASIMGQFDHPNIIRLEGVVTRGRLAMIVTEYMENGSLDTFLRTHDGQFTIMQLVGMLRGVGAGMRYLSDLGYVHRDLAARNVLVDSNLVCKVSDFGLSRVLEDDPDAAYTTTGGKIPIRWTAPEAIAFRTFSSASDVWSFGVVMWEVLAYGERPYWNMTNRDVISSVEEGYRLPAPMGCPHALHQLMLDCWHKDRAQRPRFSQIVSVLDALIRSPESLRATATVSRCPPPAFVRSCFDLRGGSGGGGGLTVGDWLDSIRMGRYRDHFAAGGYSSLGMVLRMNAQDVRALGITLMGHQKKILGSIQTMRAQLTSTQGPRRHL
Assay: radiometric filter-binding kinase assay, Kinase HotSpot
Settings: compound 0.5 µM; ATP 10 µM
Quantity: residual activity
Please state the number and follow it with the unit.

Prompt line: Requested read-out residual activity, target or system EPHA8 (human) (UniProt P29322), entry `COc1cc2ncnc(Nc3cccc(Cl)c3)c2cc1OC`
Response line: 81.5%

Prompt line: Also CO[C@H]1CC2CC[C@@H](C)[C@@](O)(O2)C(=O)C(=O)N2CCCC[C@H]2C(=O)OC([C@H](C)C[C@@H]2CC[C@@H](O)[C@H](OC)C2)CC(=O)[C@H](C)/C=C(\C)[C@@H](O)[C@@H](OC)C(=O)[C@H](C)C[C@H](C)/C=C/C=C/C=C/1C (some centres undefined) ?
Response line: 92.7%

Prompt line: Here is the next compound: `O=c1cc(N2CCOCC2)oc2c1ccc1ccccc12`
Response line: 101%

Prompt line: Lookup `COc1ccc2c(c[n+](C)c3c4cc5c(cc4ccc23)OCO5)c1OC`
Response line: 100%

Prompt line: // same read-out, input: `CCC(=O)Nc1ccc2ncnc(Nc3cccc(Br)c3)c2c1`
Response line: 96.6%

Prompt line: Further, for `Cc1ccc(S(=O)(=O)/C=C/C#N)cc1` ?
Response line: 96.8%

Prompt line: And then `CC#CC(=O)Nc1cc2c(Nc3ccc(F)c(Cl)c3)ncnc2cn1` , what is it?
Response line: 100%

Prompt line: Then what about the compound `O=C(Nc1cccc(Nc2nccc(Nc3cccc(C(F)(F)F)c3)n2)c1)C1CC1` ?
Response line: 96.3%

Prompt line: `Cc1[nH]c(/C=C2\C(=O)Nc3ccc(S(=O)(=O)N(C)c4cccc(Cl)c4)cc32)c(C)c1C(=O)N1CCN(C)CC1` ?
Response line: 91.7%

====

Molecular target: NUAK2 (human) (UniProt Q9H093)
Sequence (Q9H093 whole entry, looked up): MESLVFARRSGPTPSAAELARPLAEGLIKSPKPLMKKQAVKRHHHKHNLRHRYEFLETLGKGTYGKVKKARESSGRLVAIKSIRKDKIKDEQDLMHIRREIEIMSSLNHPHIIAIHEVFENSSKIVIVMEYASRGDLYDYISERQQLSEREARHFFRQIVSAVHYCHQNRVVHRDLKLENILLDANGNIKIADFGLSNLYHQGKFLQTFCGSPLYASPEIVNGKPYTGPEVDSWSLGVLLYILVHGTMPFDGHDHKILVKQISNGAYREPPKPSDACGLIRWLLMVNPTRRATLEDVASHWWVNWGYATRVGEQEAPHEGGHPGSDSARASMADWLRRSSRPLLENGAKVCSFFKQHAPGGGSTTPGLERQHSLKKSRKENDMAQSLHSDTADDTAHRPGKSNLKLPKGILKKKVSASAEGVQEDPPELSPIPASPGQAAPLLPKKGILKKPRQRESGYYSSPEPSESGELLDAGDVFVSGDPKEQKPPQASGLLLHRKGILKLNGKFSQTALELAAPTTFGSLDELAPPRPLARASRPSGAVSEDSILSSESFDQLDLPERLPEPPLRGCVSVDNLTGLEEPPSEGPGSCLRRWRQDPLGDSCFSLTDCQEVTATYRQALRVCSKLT
Assay: radiometric filter-binding kinase assay, Kinase HotSpot
Settings: compound 0.5 µM; ATP 10 µM
I'd appreciate it if you could supply residual activity values for the items below.
Give just the number in %; leave the unit off.

Prompt line: Form: Entry = `CCN(CC)CCNC(=O)c1c(C)[nH]c(/C=C2\C(=O)Nc3ccc(F)cc32)c1C` | System = NUAK2 (human) (UniProt Q9H093) | residual activity = ____
Response line: 65

Prompt line: Follow-up item: `COc1cc2ncnc(Nc3cccc(Cl)c3)c2cc1OC`
Response line: 142

Prompt line: Queued: `O=C1NC(=O)C(c2cn(CCCn3ccnc3)c3ccccc23)=C1Nc1ccccc1`
Response line: 113

Prompt line: Another molecule: `CC#CC(=O)Nc1cc2c(Nc3ccc(F)c(Cl)c3)ncnc2cn1`
Response line: 95.4

Prompt line: Proceed to `Nc1cccc(-c2cc3c(Oc4cccc(O)c4)ncnc3[nH]2)c1`
Response line: 90.3

Prompt line: Now this one: `CCN(CC)CCNC(=O)c1c(C)[nH]c(/C=C2\C(=O)Nc3ccc(Cl)cc32)c1C`
Response line: 70.7

Prompt line: Request: `Cc1ccc(NC2=CC(=O)c3sc(C)nc3C2=O)cc1`
Response line: 105

Prompt line: Proceed to `O=c1cc(N2CCOCC2)oc2c1ccc1ccccc12`
Response line: 120

Prompt line: Subsequent entry: `COc1ccc2c(c[n+](C)c3c4cc5c(cc4ccc23)OCO5)c1OC`
Response line: 98.9

Prompt line: Similarly, `N#C/C(=C(/N)Sc1ccc(N)cc1)c1ccccc1C(F)(F)F` ?
Response line: 75

Prompt line: How about this molecule: `O=S(=O)(c1cccc2cnccc12)N1CCCNCC1`
Response line: 83.5

Prompt line: Param item: CO[C@H]1CC2CC[C@@H](C)[C@@](O)(O2)C(=O)C(=O)N2CCCC[C@H]2C(=O)OC([C@H](C)C[C@@H]2CC[C@@H](O)[C@H](OC)C2)CC(=O)[C@H](C)/C=C(\C)[C@@H](O)[C@@H](OC)C(=O)[C@H](C)C[C@H](C)/C=C/C=C/C=C/1C (stereo partly specified)
Response line: 140

Prompt line: Same lookup for `N#CC(C#N)=C(N)/C(C#N)=C/c1ccc(O)cc1` , please.
Response line: 122

Prompt line: // query: `c1ccc(-c2n[nH]cc2-c2ccnc3ccccc23)nc1`
Response line: 135

Prompt line: Next up: `CC(=O)c1ccc(N2CCOCC2)cc1O`
Response line: 104

Prompt line: Field entry: `CC[n+]1c(/C=C/N(C)c2ccccc2)n(-c2ccccc2)c2ccc(-c3nc4ccccc4s3)cc21`
Response line: 93.3

Prompt line: Entry `CCC(=O)Nc1ccc2ncnc(Nc3cccc(Br)c3)c2c1` please
Response line: 77.4

Prompt line: Try this molecule next: `CCOC(=O)c1c(C)[nH]c(/C=C2\C(=O)Nc3ccccc32)c1C`
Response line: 128

Prompt line: Proceed to `Nc1ncnc2c1c(-c1ccc(Oc3ccccc3)cc1)cn2C1CCCC1`
Response line: 96.8

Prompt line: Further, for `c1ccc(-c2n[nH]c3c2oc2ccccc23)cc1` ?
Response line: 95.2

Prompt line: Also check `CNC(=O)c1cc(Oc2ccc(NC(=O)Nc3ccc(Cl)c(C(F)(F)F)c3)cc2)ccn1`
Response line: 101
